Hello, the source for this data is ChEMBL document CHEMBL4715912, in case you need it.

experiment: Intrinsic clearance in rat liver microsomes at 1 uM measured after 15 to 30 mins in presence of NADPH generating system by LC/MS/MS analysis; type: ADME, Microsome; conditions: time 15-30 min, read-out: CLH
Experimental Readout: microsomal CLint at 1 µM (µL/min/mg)

Below are worked cases with known answers.
{"Molecule": "CC(C)c1noc(N2CCC(Oc3cc(N4CCc5cc(N6CCC[C@H](O)C6=O)ccc54)ncn3)CC2)n1", "microsomal CLint at 1 µM / µL/min/mg": 1}
{"Molecule": "CC(C)c1noc(N2CCC(Oc3cc(N4CCc5cc(N6CCCNS6(=O)=O)ccc54)ncn3)CC2)n1", "microsomal CLint at 1 µM / µL/min/mg": 21}
{"Molecule": "CC(C)c1noc(N2CCC(Oc3cc(N4CCc5cc(N6CCNCC6=O)ccc54)ncn3)CC2)n1", "microsomal CLint at 1 µM / µL/min/mg": 98}

(a) CC(C)c1noc(N2CCC(Oc3cc(N4CCc5cc(N6CCCC(O)C6=O)ccc54)ncn3)CC2)n1 (racemic)
(b) CC(C)c1noc(N2CCC(Oc3cc(N4CCc5cc(N6CCCCC6=O)ccc54)ncn3)CC2)n1
(c) CC(C)c1noc(N2CCC(Oc3cc(N4CCc5cc(N6CCCC6=O)ccc54)ncn3)CC2)n1
(d) CC(C)c1noc(N2CCC(Oc3cc(N4CCc5cc(N6CC(O)CCC6=O)ccc54)ncn3)CC2)n1 (racemic)
(e) CC(C)c1noc(N2CCC(Oc3cc(N4CCc5cc(N6CCCS6(=O)=O)ccc54)ncn3)CC2)n1
Task: Order each entry by recorded microsomal CLint at 1 µM, climbing from the minimum. Output spec: labels arranged per the requested ranking.
Result: e, a, d, b, c
(e: 1 µL/min/mg, a: 4 µL/min/mg, d: 7 µL/min/mg, b: 13 µL/min/mg, c: 138 µL/min/mg)
